Values were extracted from PubChem BioAssay AID463173.

Test system: Wild type
Assay: S. aureus survival, RN4220 and DeltatarO strains – OD600, teichoic acid synthesis inhibitors, primary screen (AID 463173)
Conditions: S. aureus RN4220 wild type/DeltatarO growth, OD600, 18 h, stronger effect = lower value, screened at 18.75 µg/mL (by protocol)
The whole screen tested about 52,000 compounds, of which about 1,700 (3.3%) were called active. What follows is part of a selection rich in actives, with near analogues and random picks from the rest.
Each entry below carries its reported survival.

>>> measured("COC(=O)Cn1c(C(O)c2ccccc2)nc2ccccc21 (configuration not stated)")
"97% (inactive)"

Query: Give survival for Cc1nn(CC(=O)Nc2ccc(C(C)C)cc2)c(=O)c2c(C)n(-c3ccc(Cl)cc3)nc12
Reply: 90% (inactive)
